Values were extracted from patent US8871793B2.

- ASSAY_DETAILS: Pharmacokinetic study, oral capsule administration under fasted conditions in beagle dogs
- Type: in vivo
- EXPERIMENTAL_CONDITIONS: dog, mean, male beagle dogs, equivalent metaxalone dosage of 21 mg/kg, plasma, read-out: Tmax
- Method: The study was designed to compare the pharmacokinetic profiles of the 1:0.5 metaxalone fumaric acid (prepared as described in Example 2.7) and 1:0.5 metaxalone succinic acid cocrystals (prepared as described in Example 4.7) with that of the crystalline metaxalone following oral administration under fasted conditions at 21 mg/kg dose level in beagle dogs. A crossover study was carried out using 5 male beagle dogs with a washout period of 5 days between each treatment. […]
ENDPOINT_LABEL: Tmax

>>> result("Cc1cc(C)cc(OCC2CNC(=O)O2)c1 (stereo not shown)")
"54 min"
